molecular target: rhinovirus 3C protease from HRV serotype-14 (Human rhinovirus 14); construct: Recombinant rhinovirus 3C proteases; made in house; test: Inhibition of rhinovirus 3C protease activity (FRET assay), HRV-14; type: biochemical; details: read-out: Protease Inhibition kobs/I
Sequence (P03303 1538-1719): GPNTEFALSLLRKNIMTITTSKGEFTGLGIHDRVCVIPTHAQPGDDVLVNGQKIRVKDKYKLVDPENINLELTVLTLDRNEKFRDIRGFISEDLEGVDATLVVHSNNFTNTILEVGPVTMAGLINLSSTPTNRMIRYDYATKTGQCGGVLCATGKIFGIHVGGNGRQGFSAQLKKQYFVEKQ
outcome measure: kinact/KI (M⁻¹ s⁻¹)

* CCOC(=O)/C=C/[C@H](C[C@@H]1CCNC1=O)NC(=O)/C=C/c1cccc(Br)c1 | 2560
* CCOC(=O)/C=C/[C@H](C[C@@H]1CCNC1=O)NC(=O)Nc1cccc2ccccc12 | 117
* CCOC(=O)/C=C/[C@H](C[C@@H]1CCNC1=O)NC(=O)/C=C/c1ccc([N+](=O)[O-])cc1 | 2020
* CCOC(=O)/C=C/[C@H](C[C@@H]1CCNC1=O)NC(=O)/C=C/c1ccc2c(c1)OCO2 | 1960
